- System: RPMI-8226 leukemia
- ASSAY INFO: NCI-60 one-dose screen, 48 h (100 = growth as untreated, 0 = no growth, -100 = all killed)
- MEASUREMENT PARAMETERS: 10 µM unless noted
- Method: Growth inhibition of the RPMI-8226 human tumor cell line is measured as a screen for anti-cancer activity. Cells are grown in 96 well plates and exposed to the test compound for 48 hours. Compounds are tested at a single concentration, which is 10^-5 M for most compounds. The reported endpoint is percent growth (GI% or GIPRCNT), where numbers from 0 - 100% represent growth inhibition, and numbers from -100% - 0 represent cell death. For example, a value of 40 represents 60% growth inhibition. […]
About 83,000 compounds went through this panel and 20% of them were active in at least one assay; those are over-represented in the sample as a whole.
Binary classification by growth, with 30% as an inclusive lower bound for 1; all other cases are 0.

// below: answered compounds
compound=CN(C)c1ccc(-c2nc(-c3ccccc3)c(-c3ccccc3)[nH]2)cc1 classification=1
compound=COc1ccc(C(=O)N2c3ccccc3Sc3ccccc32)c(C(F)(F)F)c1 classification=0
compound=Cc1ccc(CNc2c3ccccc3nc3ccccc23)cc1 classification=0
compound="COc1ccc(C2=CN3CC=CC3CC2=O)cc1 (stereo unspecified)" classification=1
compound=Cc1ccc(N2C(=O)CCC2=O)cc1 classification=1

Say whether O=C(CCl)NNc1nccc(Nc2ccc(S(=O)(=O)Nc3ccncc3)cc2)n1 shows growth of 30% or more. 1

How about this compound: CCCCNC(=O)c1cc([N+](=O)[O-])cc(C2CCCCC2)c1O 0

How about this compound: Cc1ccc(C(=O)Nc2cccc(C#Cc3cccc4[nH]nc(N)c34)c2)cc1C(F)(F)F 1

How about this compound: Cc1ccc(/C=C/C(=O)c2ccc(-n3cc(CN4CCN(c5cc6c(cc5F)c(=O)c(C(=O)O)cn6C5CC5)CC4)nn3)cc2)cc1 1

How about this compound: O=c1ccc(=O)n(-c2nc(-c3ccc([N+](=O)[O-])cc3)cs2)[nH]1 1

How about this compound: CCCCCCCCCCCCCCCCCC1=NC(C)(C)CN1CC(C)O (stereo unspecified) 1

---

Listed compounds paired with reported growth
- Tested on: PC-3 prostate
- ASSAY INFO: NCI-60 one-dose screen, 48 h (100 = growth as untreated, 0 = no growth, -100 = all killed)
- MEASUREMENT PARAMETERS: 10 µM unless noted
About 83,000 compounds went through this panel and 20% of them were active in at least one assay; those are over-represented in the sample as a whole. Calls of active or inactive are those of the source. How the source made its calls: active means growth percent below 10; inactive means the rest.

compound=Cc1ccc(S(=O)(=O)N2CCC(=O)c3ccccc32)cc1 measured_target="PC-3 prostate" result="74.8% (inactive)"
compound=O=C(Nc1cc(Cl)ccc1O)c1cccc(Nc2ccnc(C(F)(F)F)c2)c1 measured_target="PC-3 prostate" result="28.2% (inactive)"
compound=CCCCNc1nnc2n(Cc3ccccc3)c(=O)c3c4c(sc3n12)CCCC4 measured_target="PC-3 prostate" result="42.7% (inactive)"
compound=CCOC(=O)c1c(C)nc2c(c1N)/C(=C/c1ccc(OC)cc1)C(=O)N2Cc1ccccc1 measured_target="PC-3 prostate" result="58.4% (inactive)"
compound=COc1ccc(/C=C(/C(=O)n2cnnn2)c2cc(OC)c(OC)c(OC)c2)cc1 measured_target="PC-3 prostate" result="13.1% (inactive)"
compound=COc1cccc(/C=N/NC(=O)c2ccccc2N2CCCC2)c1O measured_target="PC-3 prostate" result="72% (inactive)"
compound=COc1ccc(C(=O)Cn2c(C(=O)c3ccc(OC)cc3)nc3ccccc32)cc1 measured_target="PC-3 prostate" result="34.2% (inactive)"
compound=CCN(CC)CCN1C(=O)c2c(c(C)c3c(oc4ccc(O)cc43)c2C)C1=O measured_target="PC-3 prostate" result="49.7% (inactive)"

Recorded growth for Fc1cccc(-c2ccc3c(c2)C2(CCNCC2)CN3)c1 , please? 98.1% (inactive)

How about this compound: CCN1C(=O)N(CC)C2C1NC(=S)N2/N=C/c1ccc(C(F)(F)F)cc1 (stereo unspecified) 59.7% (inactive)

How about this compound: Nc1[nH]c(=S)nc2oc(-c3ccccc3)c(-c3ccccc3)c12 97.4% (inactive)

How about this compound: C=CCOC(=O)C1=C(C)N(CC)C(=O)NC1c1c(Cl)n(C)c2ccccc12 (stereo unspecified) 87.7% (inactive)

How about this compound: C[n+]1ccc(CCc2c[nH]c3ccccc23)cc1 84% (inactive)

How about this compound: Cc1ccc(/C=C/C(=O)c2cccc(OCCCOc3cccc(C(=O)/C=C/c4ccc(C)cc4)c3)c2)cc1 72.2% (inactive)

How about this compound: Cc1c(CN)cc(-c2ccc(Cl)cc2)n1-c1ccccc1 89.4% (inactive)

---

- Tested on: MDA-MB-231 breast
- ASSAY INFO: NCI-60 one-dose screen, 48 h
- MEASUREMENT PARAMETERS: 10 µM unless noted
About 83,000 compounds went through this panel and 20% of them were active in at least one assay; those are over-represented in the sample as a whole. Active and inactive are the calls of the source. How the source made its calls: active means growth percent below 10; inactive means the rest.
Thanks in advance; please answer with one of these: YES = active, NO = inactive

// below: answered compounds
compound=COc1ccc(-c2nn(-c3ccccc3)cc2/C=C/C(=O)NNC(=O)Nc2ccc(C)cc2)cc1 classification=NO
compound="COc1ccc(/C=C/C(c2cc(OC)c(OC)c(OC)c2)n2cncn2)cc1 (centres undefined)" classification=NO
compound=CC(=O)c1ccc(Nc2nccc(-c3ccc4ccccc4c3)n2)cc1 classification=NO

Attention now shifts to the item below.
What did this assay record as the result for O=S(=O)(Oc1ccc(Br)cc1)c1ccc(Cl)cc1 ? NO

---

- Tested on: UACC-257 melanoma
- ASSAY INFO: NCI-60 one-dose screen, 48 h
- MEASUREMENT PARAMETERS: 10 µM unless noted
The panel holds about 83,000 compounds, 20% with a hit somewhere; the sample as a whole holds those more often. Activity calls are given as the source filed them. The calls were made as follows: active = growth percent below 10; inactive = the rest.
Thanks in advance; please answer with one of these: 1 for active, 0 for inactive

compound=C=CCN1C(=O)c2cccc3c(N4CCOCC4)ccc(c23)C1=O measured_target="UACC-257 melanoma" classification=1

What did this assay record as the result for O=C(Nc1cnc(Nc2ccc(N3CCOCC3)nc2)nc1Oc1ccc(C(F)(F)F)cc1)c1ccncc1 ? 0

How about this compound: C=CCOC(=O)C1=C(C)N(CC)C(=O)NC1c1c(Cl)n(C)c2ccccc12 (centres undefined) 0

---

- System: HCT-15 colon
- ASSAY INFO: NCI-60 one-dose screen, 48 h
- MEASUREMENT PARAMETERS: 10 µM unless noted
- Protocol: Growth inhibition of the HCT-15 human tumor cell line is measured as a screen for anti-cancer activity. Cells are grown in 96 well plates and exposed to the test compound for 48 hours. Compounds are tested at a single concentration, which is 10^-5 M for most compounds. The reported endpoint is percent growth (GI% or GIPRCNT), where numbers from 0 - 100% represent growth inhibition, and numbers from -100% - 0 represent cell death. For example, a value of 40 represents 60% growth inhibition. […]
About 83,000 compounds went through this panel and 20% of them were active in at least one assay; those are over-represented in the sample as a whole. Activity calls are given as the source filed them. The calls were made as follows: active = growth percent below 10; inactive = the rest.
Thanks in advance; please answer with one of these: active, inactive

// below: answered compounds
compound=Cc1ccc(NC(=O)Cn2c(Br)nc3c2c(=O)n(C)c(=O)n3C)cc1 classification=inactive
compound=CCN(CC)CCN1C(=O)c2c(c(C)c3c(oc4ccc(OC)cc43)c2C)C1=O classification=inactive
compound=CC[C@]12C=CCN3CC[C@@]4(c5ccc(OC)cc5N(C)[C@H]4[C@@](O)(C(=O)OC)[C@@H]1OC(=O)CCC[P+](c1ccccc1)(c1ccccc1)c1ccccc1)[C@@H]32 classification=inactive
compound=COc1ccccc1C(=O)Nc1cccc(NC(=O)c2ccoc2C)c1 classification=inactive
compound="CCN1C(=O)N(CC)C2C1NC(=S)N2/N=C/c1ccc(C(F)(F)F)cc1 (centres undefined)" classification=inactive

What did this assay record as the result for CCCCNc1nnc2n(Cc3ccccc3)c(=O)c3c4c(sc3n12)CCCC4 ? inactive

How about this compound: CN(CCCNC(=O)CCOCCOCCOCCNC(=O)Cc1ccc2ccc3cccc4ccc1c2c34)CCCNc1cc(-c2ccc3ccccc3c2)nc2ccccc12 active

How about this compound: N#Cc1cncc(-c2ccc3ncnc(Nc4cccc(Cl)c4)c3c2)c1 inactive

How about this compound: CC[N+]1(CC)CC[N+]2(CCCC(C)CC2)CC1 (centres undefined) inactive

---

- System: HCT-116 colon
- ASSAY INFO: NCI-60 one-dose screen, 48 h (100 = growth as untreated, 0 = no growth, -100 = all killed)
- MEASUREMENT PARAMETERS: 10 µM unless noted
About 83,000 compounds went through this panel and 20% of them were active in at least one assay; those are over-represented in the sample as a whole.
MEASURE NAME: growth (%)
Quick note: give the figure in %, leave out the unit.

compound="Cc1nc2sc(C(=O)Nc3cccc(Br)c3C)c(N)c2cc1C(O)c1ccccc1 (stereo unspecified)" measure_name=growth recorded_number=6.83
compound=Cc1cc2c(cc1C)N(C(=O)CCl)CC(=O)N2 measure_name=growth recorded_number=-10.9
compound=O=C(/C=C/c1ccc(Oc2ccc(Br)cc2)cc1)c1ccc(Br)cc1 measure_name=growth recorded_number=97.6
compound=N[C@H]1CCC[C@@H]1NCCCCN1C(=O)c2cccc3cc([N+](=O)[O-])cc(c23)C1=O measure_name=growth recorded_number=9.25
compound=Cc1n[nH]c2ccc(Br)cc2c1=O measure_name=growth recorded_number=98.7

As a next step, examine the compound that follows.
What reported growth corresponds to C/C=C(/C)n1cnc2c(Nc3ccccn3)nc(Cl)nc21 on HCT-116 colon? 104
